Values compiled from paper PMC3287177.

- System Name: T1, Lin28 39-112 (CSD) (Mus musculus, UniProt Q8K3Y3 39-112)
- T1 sequence: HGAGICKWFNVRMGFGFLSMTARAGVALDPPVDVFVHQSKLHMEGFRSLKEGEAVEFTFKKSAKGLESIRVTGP
- Assay Method Text: EMSA
Property Name: Kd (nM)
Enter your answer as a number in nM; do not include the unit.

Asked: If you can, please state the reported Kd value of pre-let-7g (structured_RNA) RNA: UGAGGUAGUAGUUUGUACAGUUUGAGGGUCUAUGAUACCACCCGGUACAGGAGAUAACUGUACAGGCCACUGCCUUGCC .
Given back: 41
